- study-system: UniProt:P42338
- test: Assessment of PIK3CB Kinase Activity
pIC50: −log10 of the molar value.
measure-name: pIC50

Retrieve pIC50 measured for CC(C)OC(=O)c1cccc(-n2c([C@H](C)Nc3nc(N)ncc3C#N)cc3cccc(Cl)c3c2=O)c1 and print it.
< 5.00

Item COc1ncc(-c2cccc3cc([C@H](C)Nc4nc(N)ncc4C#N)n(-c4ccccc4)c(=O)c23)cn1 : provide pIC50
< 5.00

---

- study-system: PIK3CB (Human) (UniProt P42338)
- Sequence (P42338 whole entry, looked up): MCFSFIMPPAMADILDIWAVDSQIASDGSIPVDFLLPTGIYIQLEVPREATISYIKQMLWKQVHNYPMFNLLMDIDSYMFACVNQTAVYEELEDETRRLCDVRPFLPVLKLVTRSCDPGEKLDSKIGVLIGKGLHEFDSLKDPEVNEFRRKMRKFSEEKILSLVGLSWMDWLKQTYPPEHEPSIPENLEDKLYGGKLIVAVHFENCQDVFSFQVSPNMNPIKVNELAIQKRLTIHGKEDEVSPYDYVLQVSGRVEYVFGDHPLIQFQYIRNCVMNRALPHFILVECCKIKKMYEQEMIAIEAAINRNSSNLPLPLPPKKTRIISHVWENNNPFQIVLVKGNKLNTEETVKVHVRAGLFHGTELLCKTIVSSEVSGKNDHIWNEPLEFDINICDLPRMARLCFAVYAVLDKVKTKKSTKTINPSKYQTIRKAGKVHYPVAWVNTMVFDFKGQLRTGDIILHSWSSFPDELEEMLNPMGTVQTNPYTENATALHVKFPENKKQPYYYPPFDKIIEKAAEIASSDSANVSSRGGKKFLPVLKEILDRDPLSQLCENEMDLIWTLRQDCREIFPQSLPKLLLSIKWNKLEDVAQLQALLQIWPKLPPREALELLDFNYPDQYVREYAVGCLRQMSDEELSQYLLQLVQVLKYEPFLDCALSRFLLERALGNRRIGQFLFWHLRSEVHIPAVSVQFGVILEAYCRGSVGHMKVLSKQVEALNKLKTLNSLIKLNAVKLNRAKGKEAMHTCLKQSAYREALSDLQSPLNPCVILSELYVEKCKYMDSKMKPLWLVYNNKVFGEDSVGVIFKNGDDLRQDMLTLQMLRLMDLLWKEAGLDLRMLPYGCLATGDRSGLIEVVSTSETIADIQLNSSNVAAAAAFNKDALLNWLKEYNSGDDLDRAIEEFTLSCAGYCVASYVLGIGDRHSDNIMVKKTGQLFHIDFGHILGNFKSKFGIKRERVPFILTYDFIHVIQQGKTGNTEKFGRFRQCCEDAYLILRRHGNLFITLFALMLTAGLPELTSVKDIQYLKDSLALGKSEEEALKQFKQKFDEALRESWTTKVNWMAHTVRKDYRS
- test: Assessment of PIK3CB Kinase Activity
Entries and their IC50

Solved entries:
{"line-notation": "C[C@H](Nc1nc(N)ncc1C(=O)N(C)C)c1cc2cccc(-c3cnn(C)c3)c2c(=O)n1-c1ccccc1", "IC50": "> 10 µM"}
{"line-notation": "CC(C)C(=O)c1cnc(N)nc1N[C@@H](C)c1cc2cccc(Cl)c2c(=O)n1-c1ccccc1", "IC50": "> 10 µM"}

Name the recorded IC50 of the item C[C@H](Nc1nc(N)ncc1C#N)c1cc2cccc(Cl)c2c(=O)n1-c1cc(F)ccc1F in your answer.
0.1 to 1 µM

# return recorded IC50 for input C[C@H](Nc1cc(Cl)nc(N)n1)c1cc2cccc(Cl)c2c(=O)n1-c1ccccc1
> 10 µM

---

- study-system: PIK3CD (Human) (UniProt O00329)
- Sequence (O00329 whole entry, looked up): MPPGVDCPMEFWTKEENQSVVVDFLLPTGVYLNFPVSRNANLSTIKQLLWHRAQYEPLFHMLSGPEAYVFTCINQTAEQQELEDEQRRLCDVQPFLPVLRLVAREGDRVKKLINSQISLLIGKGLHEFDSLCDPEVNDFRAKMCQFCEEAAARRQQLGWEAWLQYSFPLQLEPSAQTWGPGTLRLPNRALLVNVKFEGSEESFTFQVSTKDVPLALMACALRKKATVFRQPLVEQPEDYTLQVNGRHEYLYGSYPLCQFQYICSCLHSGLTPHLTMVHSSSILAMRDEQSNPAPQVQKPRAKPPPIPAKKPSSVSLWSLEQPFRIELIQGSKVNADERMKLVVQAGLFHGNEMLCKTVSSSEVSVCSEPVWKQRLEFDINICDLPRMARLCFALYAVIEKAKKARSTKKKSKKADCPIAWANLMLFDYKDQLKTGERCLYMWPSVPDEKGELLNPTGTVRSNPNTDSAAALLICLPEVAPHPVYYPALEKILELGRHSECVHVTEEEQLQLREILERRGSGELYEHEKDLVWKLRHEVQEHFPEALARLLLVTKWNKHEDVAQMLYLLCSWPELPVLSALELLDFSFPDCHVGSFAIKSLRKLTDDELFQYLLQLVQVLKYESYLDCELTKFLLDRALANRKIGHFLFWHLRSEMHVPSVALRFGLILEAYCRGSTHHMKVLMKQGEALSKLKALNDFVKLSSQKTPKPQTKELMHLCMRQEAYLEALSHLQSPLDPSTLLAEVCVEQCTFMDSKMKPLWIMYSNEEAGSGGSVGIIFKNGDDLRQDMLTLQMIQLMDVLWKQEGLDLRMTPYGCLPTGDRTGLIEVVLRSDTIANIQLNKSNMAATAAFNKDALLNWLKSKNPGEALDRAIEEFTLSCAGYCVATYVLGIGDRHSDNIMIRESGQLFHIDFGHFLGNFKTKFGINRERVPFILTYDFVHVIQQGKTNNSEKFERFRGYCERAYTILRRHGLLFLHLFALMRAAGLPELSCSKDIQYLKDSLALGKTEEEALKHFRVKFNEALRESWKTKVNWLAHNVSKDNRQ
- test: Assessment of PIK3CD Kinase Activity
pIC50: −log10 of the molar value.
This listing pairs molecules with measured pIC50.

{"line-notation": "C[C@H](Nc1nc(N)ncc1-c1cccc(S(C)(=O)=O)c1)c1cc2cccc(Cl)c2c(=O)n1-c1ccccc1", "value-measured": "6.00 to 7.00"}
{"line-notation": "Cc1ccc(-n2c([C@H](C)Nc3nc(N)ncc3C#N)cc3cccc(Cl)c3c2=O)cc1", "value-measured": "> 7.00"}

Return pIC50 (reported value) for this molecule: CCOc1nc(-c2cnc(N)nc2N[C@@H](C)c2cc3cccc(-c4ccc(=O)n(C)c4)c3c(=O)n2-c2ccccc2)cs1
> 7.00

Fill in reported pIC50 for this entry: C[C@H](Nc1nc(N)ncc1-c1ncco1)c1cc2cccc(Cl)c2c(=O)n1-c1ccccc1
> 7.00

Tell me its pIC50 given COc1cccc(-c2cccc3cc([C@H](C)Nc4nc(N)ncc4C#N)n(-c4ccccc4)c(=O)c23)n1 as the entry.
> 7.00

For the molecule COc1cc(-c2cccc3cc([C@H](C)Nc4nc(N)ncc4C(=O)N4CC(F)(F)C4)n(-c4ccccc4)c(=O)c23)ccn1 , give its measured pIC50 value.
6.00 to 7.00

Quote pIC50 reported for COc1cncc(-c2cccc3cc([C@H](C)Nc4nc(N)ncc4C#N)n(C4CC4)c(=O)c23)c1 please.
> 7.00

---

A set of compounds tested on UniProt:P48736, with measured pIC50:
pIC50: −log10 of the molar value.

Known results for compounds:
{"line-notation": "C[C@H](Nc1nc(N)ncc1-c1ccccc1)c1cc2cccc(Cl)c2c(=O)n1-c1ccccc1", "pIC50": "6.00 to 7.00"}
{"line-notation": "CC(=O)c1cnc(N)nc1N[C@@H](C)c1cc2cccc(Cl)c2c(=O)n1-c1ccccc1", "pIC50": "> 7.00"}
{"line-notation": "C[C@H](Nc1nc(N)ncc1C#N)c1cc2cccc(-c3ccc(C#N)cc3)c2c(=O)n1-c1ccccc1", "pIC50": "> 7.00"}
{"line-notation": "C[C@H](Nc1nc(N)ncc1C#N)c1cc2cccc(CC#N)c2c(=O)n1-c1ccccc1", "pIC50": "> 7.00"}
{"line-notation": "C[C@H](Nc1ncncc1-c1cccc(S(=O)(=O)N(C)C)c1)c1cc2cccc(Cl)c2c(=O)n1-c1ccccc1", "pIC50": "6.00 to 7.00"}

Quote pIC50 with test system UniProt:P48736 for C[C@H](Nc1nc(N)ncc1-c1ccc(S(C)(=O)=O)nc1)c1cc2cccc(Cl)c2c(=O)n1-c1ccccc1
Sequence (P48736 whole entry, looked up): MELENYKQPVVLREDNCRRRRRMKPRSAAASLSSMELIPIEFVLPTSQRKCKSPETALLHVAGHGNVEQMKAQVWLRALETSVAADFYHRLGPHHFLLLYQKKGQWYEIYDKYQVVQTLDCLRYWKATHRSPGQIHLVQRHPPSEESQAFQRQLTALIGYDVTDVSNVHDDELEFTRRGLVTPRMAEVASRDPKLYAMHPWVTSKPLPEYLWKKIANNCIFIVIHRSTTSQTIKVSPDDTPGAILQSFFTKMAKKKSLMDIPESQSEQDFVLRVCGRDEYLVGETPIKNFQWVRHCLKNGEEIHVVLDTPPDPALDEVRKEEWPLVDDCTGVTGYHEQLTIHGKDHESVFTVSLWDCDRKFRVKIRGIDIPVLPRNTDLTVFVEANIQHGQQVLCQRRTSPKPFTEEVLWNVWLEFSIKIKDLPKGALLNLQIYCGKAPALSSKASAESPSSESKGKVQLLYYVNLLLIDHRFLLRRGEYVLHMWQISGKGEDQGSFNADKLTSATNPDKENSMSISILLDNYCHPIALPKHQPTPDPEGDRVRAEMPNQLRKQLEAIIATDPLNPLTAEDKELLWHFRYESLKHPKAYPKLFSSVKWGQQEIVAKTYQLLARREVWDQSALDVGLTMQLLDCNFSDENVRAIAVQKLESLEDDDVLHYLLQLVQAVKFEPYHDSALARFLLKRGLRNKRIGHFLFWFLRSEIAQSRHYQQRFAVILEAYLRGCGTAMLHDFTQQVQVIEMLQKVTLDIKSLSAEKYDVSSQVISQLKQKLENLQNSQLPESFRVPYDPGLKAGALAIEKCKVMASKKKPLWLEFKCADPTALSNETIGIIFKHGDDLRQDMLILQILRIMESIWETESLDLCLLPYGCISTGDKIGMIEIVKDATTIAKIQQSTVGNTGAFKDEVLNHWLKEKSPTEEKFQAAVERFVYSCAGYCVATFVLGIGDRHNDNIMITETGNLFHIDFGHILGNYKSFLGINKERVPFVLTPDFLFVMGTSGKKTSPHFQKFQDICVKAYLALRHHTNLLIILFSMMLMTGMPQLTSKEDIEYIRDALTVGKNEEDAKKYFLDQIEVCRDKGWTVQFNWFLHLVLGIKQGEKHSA
6.00 to 7.00

Send back UniProt:P48736 pIC50 of C[C@H](Nc1nc(N)ncc1-c1cccc(S(C)(=O)=O)c1)c1cc2cccc(Cl)c2c(=O)n1-c1ccccc1 only.
> 7.00

# return pIC50 of C[C@H](Nc1nc(N)ncc1C#N)c1cc2cccc(-c3cnc4[nH]ccc4c3)c2c(=O)n1-c1cccc(F)c1 (system: UniProt:P48736)
> 7.00

Quote pIC50 with test system UniProt:P48736 for COc1ncc(-c2cccc3cc([C@H](C)Nc4nc(N)ncc4C#N)n(-c4ccccc4)c(=O)c23)s1
> 7.00

Give the observed pIC50 of CSc1ncc(-c2cnc(N)nc2N[C@@H](C)c2cc3cccc(Cl)c3c(=O)n2-c2ccccc2)s1 for UniProt:P48736.
> 7.00

State, for UniProt:P48736, measured pIC50 of the compound listed here: C[C@H](Nc1nc(N)ncc1-c1cnn(C)c1)c1cc2cccc(Cl)c2c(=O)n1-c1ccccc1
> 7.00
